readout name: pIC50
Kindly note that pIC50 refers to -log10 of the concentration in mol/L and answer with the value alone.

**Query** Form entry - test system: Macrophage colony-stimulating factor 1 receptor (Homo sapiens, UniProt P07333); read-out: pIC50; molecule: `Cn1cc(-c2cc3ncnc(Nc4ccc(CC(=O)Nc5cc(C(C)(C)C)nn5C)cc4)c3s2)cn1`
Sequence (P07333 whole entry): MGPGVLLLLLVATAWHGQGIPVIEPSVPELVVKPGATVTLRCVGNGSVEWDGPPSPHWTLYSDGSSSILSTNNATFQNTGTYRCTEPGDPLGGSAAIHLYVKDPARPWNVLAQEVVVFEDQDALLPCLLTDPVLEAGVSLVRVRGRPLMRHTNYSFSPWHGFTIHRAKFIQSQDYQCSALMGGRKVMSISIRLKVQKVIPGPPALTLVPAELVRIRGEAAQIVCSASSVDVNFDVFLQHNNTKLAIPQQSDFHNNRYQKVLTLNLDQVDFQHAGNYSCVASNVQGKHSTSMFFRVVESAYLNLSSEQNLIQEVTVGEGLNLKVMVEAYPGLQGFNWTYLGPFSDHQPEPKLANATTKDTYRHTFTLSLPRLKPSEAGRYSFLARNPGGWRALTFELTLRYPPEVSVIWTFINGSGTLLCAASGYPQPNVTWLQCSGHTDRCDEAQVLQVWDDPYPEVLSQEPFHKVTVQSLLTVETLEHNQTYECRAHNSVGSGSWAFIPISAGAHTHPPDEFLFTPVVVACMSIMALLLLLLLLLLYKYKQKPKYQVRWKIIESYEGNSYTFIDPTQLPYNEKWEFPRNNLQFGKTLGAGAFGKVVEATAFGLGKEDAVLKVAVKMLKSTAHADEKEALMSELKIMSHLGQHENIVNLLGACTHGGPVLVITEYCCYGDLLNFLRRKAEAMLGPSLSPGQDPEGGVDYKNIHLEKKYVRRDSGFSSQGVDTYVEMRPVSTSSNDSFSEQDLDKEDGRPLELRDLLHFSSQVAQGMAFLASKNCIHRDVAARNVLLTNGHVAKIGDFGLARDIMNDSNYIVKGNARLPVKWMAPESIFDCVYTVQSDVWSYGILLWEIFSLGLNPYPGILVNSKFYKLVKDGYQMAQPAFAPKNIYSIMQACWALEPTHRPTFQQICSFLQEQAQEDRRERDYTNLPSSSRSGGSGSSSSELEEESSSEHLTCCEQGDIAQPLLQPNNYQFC
**Result** 4.87

---

# target entity: High affinity nerve growth factor receptor (Homo sapiens, UniProt P04629)
# Sequence (P04629 whole entry, the tested form may be a part): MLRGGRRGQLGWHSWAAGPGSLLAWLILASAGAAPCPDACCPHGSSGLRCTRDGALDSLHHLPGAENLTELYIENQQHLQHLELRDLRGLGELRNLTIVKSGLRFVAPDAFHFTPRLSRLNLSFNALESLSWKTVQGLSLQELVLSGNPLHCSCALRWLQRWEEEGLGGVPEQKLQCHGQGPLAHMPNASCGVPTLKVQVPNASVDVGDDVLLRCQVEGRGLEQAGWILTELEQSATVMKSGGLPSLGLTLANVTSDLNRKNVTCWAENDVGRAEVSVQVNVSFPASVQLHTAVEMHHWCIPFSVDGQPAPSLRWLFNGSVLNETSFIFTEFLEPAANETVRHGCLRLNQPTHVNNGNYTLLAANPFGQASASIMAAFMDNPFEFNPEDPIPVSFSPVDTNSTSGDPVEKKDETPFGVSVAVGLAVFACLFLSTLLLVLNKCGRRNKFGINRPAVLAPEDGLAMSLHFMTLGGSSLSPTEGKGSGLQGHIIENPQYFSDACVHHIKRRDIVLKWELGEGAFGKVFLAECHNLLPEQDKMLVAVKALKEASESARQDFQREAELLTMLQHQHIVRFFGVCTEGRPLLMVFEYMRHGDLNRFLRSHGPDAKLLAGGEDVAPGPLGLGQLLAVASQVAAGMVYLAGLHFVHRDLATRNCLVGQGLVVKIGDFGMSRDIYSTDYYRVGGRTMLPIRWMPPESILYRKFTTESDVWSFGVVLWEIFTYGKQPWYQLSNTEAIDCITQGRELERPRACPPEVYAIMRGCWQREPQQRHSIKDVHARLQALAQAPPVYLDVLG
# assay method text: Inhibition of recombinant His-tagged human TRKA (441 to 796 residues) expressed in baculovirus expression system using 5-FAM-EEPLYWSFPAKKK-CONH2 as substrate preincubated for 1 hr followed by substrate addition in presence of ATP by mobility shift assay
readout name: IC50 (µM)
Report only the number, with the unit µM understood.

**Query** Form entry - test system: High affinity nerve growth factor receptor (Homo sapiens, UniProt P04629); read-out: IC50; molecule: `O=C(Cc1ccc(Nc2ncnc3ccsc23)cc1)N[C@@H]1CCCC[C@@H]1O`
**Result** 41.2

**Query** Form entry - test system: High affinity nerve growth factor receptor (Homo sapiens, UniProt P04629); read-out: IC50; molecule: `CS(=O)(=O)c1ccc(-c2cc3ncnc(Nc4ccc(CC(=O)Nc5ccc(F)c(Cl)c5)cc4)c3s2)cc1`
**Result** 200

**Query** Form entry - test system: High affinity nerve growth factor receptor (Homo sapiens, UniProt P04629); read-out: IC50; molecule: `C#Cc1cccc(NC(=O)Cc2ccc(Nc3ncnc4ccsc34)cc2)c1`
**Result** 22.6

**Query** Form entry - test system: High affinity nerve growth factor receptor (Homo sapiens, UniProt P04629); read-out: IC50; molecule: `O=C(Cc1ccc(Nc2ncnc3ccsc23)cc1)N[C@H]1CCCC[C@@H]1O`
**Result** 40.5

---

Kindly state IC50 for each of the entries shown.
# System: KM12
# assay method text: Cytotoxicity against human KM12 cells assessed as reduction in cell viability incubated for 72 hrs by resazurin based assay
# Assay type: functional
# test parameters: KM12, 72 h

**Query** Return reported IC50; argument: `O=C(Cc1ccc(Nc2ncnc3ccsc23)cc1)N[C@H]1CCCC[C@@H]1O`
**Result** > 200 µM

**Query** Return reported IC50; argument: `O=C(Cc1ccc(Nc2ncnc3ccsc23)cc1)N[C@@H]1CCCC[C@@H]1O`
**Result** > 200 µM

**Query** Return reported IC50; argument: `O=C(Cc1ccc(-c2ncnc3ccsc23)cc1)N[C@@H]1CCCC[C@H]1O`
**Result** > 200 µM
